tested.system: aromatase (Homo sapiens, UniProt P11511)
Sequence (P11511 1-503): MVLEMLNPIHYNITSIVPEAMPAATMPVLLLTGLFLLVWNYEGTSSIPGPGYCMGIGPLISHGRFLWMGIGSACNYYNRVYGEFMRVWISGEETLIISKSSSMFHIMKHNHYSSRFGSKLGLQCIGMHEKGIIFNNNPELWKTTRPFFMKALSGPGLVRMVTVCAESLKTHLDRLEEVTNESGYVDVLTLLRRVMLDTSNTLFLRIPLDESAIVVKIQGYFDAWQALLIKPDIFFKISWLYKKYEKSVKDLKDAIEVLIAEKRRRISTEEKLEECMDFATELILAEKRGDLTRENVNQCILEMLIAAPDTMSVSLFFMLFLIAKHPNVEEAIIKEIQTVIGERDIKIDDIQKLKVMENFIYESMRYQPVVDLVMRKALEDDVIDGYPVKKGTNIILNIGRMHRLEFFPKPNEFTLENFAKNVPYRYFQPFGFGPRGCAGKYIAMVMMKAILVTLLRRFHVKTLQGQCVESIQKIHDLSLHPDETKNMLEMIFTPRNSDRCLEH
test: biochemical
test.parameters: human placental microsomes, 30 min at 37° C., pH 7.4, 1,2[3H]androstenedione; read-out: IC50-values (concentration of the compound required to obtain 50% inhibition of the estrogen synthesis)
measured.metric: IC50 (nM)
Give a bare numeral; the unit nM is implied.

**Q:** Give recorded IC50. CCCn1nnc2ccc(Cn3ccnc3)cc21
**A:** 15

**Q:** Give recorded IC50. Cc1cncn1C(c1ccccc1)c1ccc2nnn(OCc3ccccc3)c2c1 (stereo not drawn)
**A:** 36.2

**Q:** Give recorded IC50. c1ccc(C(c2ccc3nnn(C4CCCCC4)c3c2)n2ccnc2)cc1 (stereo not drawn)
**A:** 20.6

**Q:** Give recorded IC50. c1ccc(-c2ccc(COn3nnc4ccc(Cn5ccnc5)cc43)cc2)cc1
**A:** 23.4

**Q:** Give recorded IC50. Cn1nnc2ccc(C(c3ccc(F)cc3)n3ccnc3)cc21 (stereo not drawn)
**A:** 15.9

**Q:** Give recorded IC50. c1ccc(COn2nnc3ccc(C(c4ccccc4)n4ccnc4)cc32)cc1 (stereo not drawn)
**A:** 18.2

**Q:** Give recorded IC50. CCOn1nnc2ccc(Cn3ccnc3)cc21.Cl [Compound 225, monohydrochloride]
**A:** 10

**Q:** Give recorded IC50. c1cn(Cc2ccc3nnn(CC4CC4)c3c2)cn1
**A:** 15.2

**Q:** Give recorded IC50. Cn1nnc2ccc(C(c3ccsc3)n3ccnc3)cc21 (stereo not drawn)
**A:** 29

====

tested.system: UniProt P11511
Sequence (P11511 1-503): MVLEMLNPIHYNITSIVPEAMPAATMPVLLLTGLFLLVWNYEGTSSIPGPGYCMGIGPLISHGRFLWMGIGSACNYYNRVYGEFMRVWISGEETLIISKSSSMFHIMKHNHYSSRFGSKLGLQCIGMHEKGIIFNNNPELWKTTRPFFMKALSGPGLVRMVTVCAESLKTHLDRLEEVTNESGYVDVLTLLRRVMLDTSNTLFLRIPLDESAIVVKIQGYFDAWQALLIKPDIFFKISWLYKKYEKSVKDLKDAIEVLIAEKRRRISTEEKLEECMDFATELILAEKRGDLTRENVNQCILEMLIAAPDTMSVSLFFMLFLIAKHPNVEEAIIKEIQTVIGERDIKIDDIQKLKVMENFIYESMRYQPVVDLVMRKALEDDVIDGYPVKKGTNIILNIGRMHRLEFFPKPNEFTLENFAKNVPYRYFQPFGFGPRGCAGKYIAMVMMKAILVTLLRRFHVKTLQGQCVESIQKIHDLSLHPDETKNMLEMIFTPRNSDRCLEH
test: biochemical
test.parameters: human placental microsomes, 30 min at 37° C., pH 7.4, 1,2[3H]androstenedione; read-out: IC50-values (concentration of the compound required to obtain 50% inhibition of the estrogen synthesis)
Description: Human placental microsomes were diluted in potassium phosphate buffer (0.1M, pH 7.4) to give about 50% conversion of androgens to estrogens (protein content: about 0.5 mg). Four ml human placental microsomes were incubated in a final volume of 5 ml with 0.2 μCi1,2[3H]-androstenedione, 2 μg androstendione and 5 μl of test compound and/or dimethyl sulfoxide (DMSO). […] The reaction was initiated by the addition of androstenedione and proceeded for 30 min at 37° C. […]
# note: exactly 10 nM is not below, so it is 0.0; use 1.0 for IC50 strictly under it

**Q:** Could you please tell me whether IC50 recorded for Cn1nnc2ccc(C(c3ccccc3)n3ccnc3)cc21 (stereo not drawn) [Compound 7] is less than 10 nM?
**A:** 0.0

**Q:** Could you please tell me whether IC50 recorded for c1ccc2c(c1)CCC2n1nnc2ccc(Cn3ccnc3)cc21 (stereo not drawn) is less than 10 nM?
**A:** 0.0

**Q:** Could you please tell me whether IC50 recorded for CCCCOn1nnc2ccc(C(c3ccccc3)n3ccnc3)cc21 (stereo not drawn) is less than 10 nM?
**A:** 0.0

**Q:** Could you please tell me whether IC50 recorded for C#CCOn1nnc2ccc(Cn3ccnc3)cc21 is less than 10 nM?
**A:** 0.0

**Q:** Could you please tell me whether IC50 recorded for CCCOn1nnc2ccc(Cn3ccnc3)cc21 [Compound 227, hemihydrate] is less than 10 nM?
**A:** 1.0

**Q:** Could you please tell me whether IC50 recorded for CCCC(c1ccc2nnn(C)c2c1)n1ccnc1 (stereo not drawn) is less than 10 nM?
**A:** 0.0

**Q:** Could you please tell me whether IC50 recorded for COCCOn1nnc2ccc(Cn3ccnc3)cc21 is less than 10 nM?
**A:** 0.0

**Q:** Could you please tell me whether IC50 recorded for c1cn(Cc2ccc3nnn(CC4CCCCC4)c3c2)cn1 is less than 10 nM?
**A:** 0.0

**Q:** Could you please tell me whether IC50 recorded for CCCCn1nnc2ccc(C(c3cccc(Cl)c3)n3ccnc3)cc21 (stereo not drawn) is less than 10 nM?
**A:** 1.0

**Q:** Could you please tell me whether IC50 recorded for CC(C)n1nnc2ccc(Cn3ccnc3)cc21 is less than 10 nM?
**A:** 0.0

**Q:** Could you please tell me whether IC50 recorded for c1cn(Cc2ccc3nnn(C4CC5CCC4C5)c3c2)cn1 (stereo not drawn) is less than 10 nM?
**A:** 0.0

**Q:** Could you please tell me whether IC50 recorded for CCCCCCCOn1nnc2ccc(Cn3ccnc3)cc21 is less than 10 nM?
**A:** 1.0

**Q:** Could you please tell me whether IC50 recorded for Clc1ccc(Cn2nnc3ccc(Cn4ccnc4)cc32)cc1 is less than 10 nM?
**A:** 1.0

**Q:** Could you please tell me whether IC50 recorded for Cn1nnc2ccc(C(c3cccc(Cl)c3)n3ccnc3)cc21 (stereo not drawn) is less than 10 nM?
**A:** 0.0

**Q:** Could you please tell me whether IC50 recorded for c1ccc(SCOn2nnc3ccc(Cn4ccnc4)cc32)cc1 is less than 10 nM?
**A:** 0.0

**Q:** Could you please tell me whether IC50 recorded for CCC(C)On1nnc2ccc(Cn3ccnc3)cc21 (stereo not drawn) is less than 10 nM?
**A:** 0.0

**Q:** Could you please tell me whether IC50 recorded for CCCCn1nnc2ccc(Cn3ccnc3)cc21 is less than 10 nM?
**A:** 1.0

**Q:** Could you please tell me whether IC50 recorded for Cn1nnc2ccc(C(c3ccc(Cl)cc3)n3ccnc3)cc21 (stereo not drawn) [Compound 48] is less than 10 nM?
**A:** 0.0

**Q:** Could you please tell me whether IC50 recorded for c1csc(Cn2nnc3ccc(Cn4ccnc4)cc32)c1 is less than 10 nM?
**A:** 0.0

**Q:** Could you please tell me whether IC50 recorded for CCCCCOn1nnc2ccc(Cn3ccnc3)cc21 is less than 10 nM?
**A:** 1.0

**Q:** Could you please tell me whether IC50 recorded for c1cn(Cc2ccc3nnn(C4CCCCCC4)c3c2)cn1 is less than 10 nM?
**A:** 0.0
